meta.source: PubChem BioAssay (NCI)

- Test system: NCI-H460 lung
- assay_remarks: NCI-60 one-dose screen, 48 h (100 = growth as untreated, 0 = no growth, -100 = all killed)
- condition_parameters: 10 µM unless noted
This is part of a sample that, as a whole, favours compounds with a hit. Of some 83,000 tested, about 20% had one in any assay.
measurement_name: growth (%)
Provide the reading as a plain figure in %.

In plain terms, `CC(C)N(Cc1ccc(CN(C(=O)CCl)C(C)C)cc1)C(=O)CCl` has a documented growth of 35.8

In plain terms, `CN(C)CCCNC(=O)C(c1ccccc1)c1ccccc1` has a documented growth of 112

In plain terms, `NC(N)=NC(N)=Nc1ccccc1-c1ccccc1` has a documented growth of 105

In plain terms, `COC(=O)CCCCCCN=Cc1c(O)c(O)c(C(C)C)c2cc(C)c(-c3c(C)cc4c(C(C)C)c(O)c(O)c(C=NCCCCCCC(=O)OC)c4c3O)c(O)c12` has a documented growth of 6.7

In plain terms, `O=S(=O)(NCCNc1cc(-c2cn(-c3ccccc3)nc2-c2ccccc2)ccn1)c1cccc2ccccc12` has a documented growth of 44.4

----------
- Tested on: NCI-H23 lung
- assay_remarks: NCI-60 one-dose screen, 48 h (100 = growth as untreated, 0 = no growth, -100 = all killed)
- condition_parameters: 10 µM unless noted
The panel holds about 83,000 compounds, 20% with a hit somewhere; the sample as a whole holds those more often.
Assign labels as follows, please: condition met for growth below 60%; condition not met for growth equal to or exceeding 60%.

Determine whether this compound shows growth lower than 60% (ties excluded): `COc1cc2nc(Cl)nc(NCCO)c2cc1OC`
condition not met

Determine whether this compound shows growth lower than 60% (ties excluded): `Cc1nc(Nc2cccnc2)sc1C(=O)/C=C/c1ccc(F)cc1`
condition not met

Determine whether this compound shows growth lower than 60% (ties excluded): `O=C(O)Cc1ccc2c(c1)Cc1cccnc1O2`
condition not met

Determine whether this compound shows growth lower than 60% (ties excluded): `O=C(Nc1ccc(OCc2nnc(-c3ccc(Cl)cc3)o2)c(F)c1)Nc1ccc(Cl)c(Cl)c1`
condition met

Determine whether this compound shows growth lower than 60% (ties excluded): `CCCCCCCCCCCCOB(OCCCCCCCCCCCC)OCCCCCCCCCCCC`
condition not met

Determine whether this compound shows growth lower than 60% (ties excluded): `COc1ccc(/C(=N\O)c2cc(OC)c(OC)c(OC)c2)c(OC)c1N`
condition met

Determine whether this compound shows growth lower than 60% (ties excluded): `CC(C)C[C@H](NC(=O)[C@@H](Cc1ccccc1)n1ccc(Nc2ccccc2)cc1=O)B(O)O`
condition met

Determine whether this compound shows growth lower than 60% (ties excluded): `COc1ccc(-c2nnc(COc3ccc(NS(=O)(=O)c4ccc(OC)cc4)cc3F)o2)cc1`
condition met

Determine whether this compound shows growth lower than 60% (ties excluded): `COc1cc(/C=C/C(=O)c2ccccc2O)ccc1OCCCOc1cc2c(cc1OC)C(=O)N1CCC[C@H]1C=N2`
condition met

Determine whether this compound shows growth lower than 60% (ties excluded): CCC(c1ccc(OC)cc1)C(CC)c1ccc(O)c(CN2CCCC2)c1 (configuration not stated)
condition met

Determine whether this compound shows growth lower than 60% (ties excluded): `CC(=O)OC[Si](C)(C)c1ccccc1`
condition not met

Determine whether this compound shows growth lower than 60% (ties excluded): `O=[N+]([O-])c1c(S(=O)(=O)O)cc2cc(S(=O)(=O)O)ccc2c1[N+](=O)[O-]`
condition not met

Determine whether this compound shows growth lower than 60% (ties excluded): `Cc1ccc2nc(-c3c(N)n[nH]c3CCCO)[nH]c(=O)c2c1`
condition not met

Determine whether this compound shows growth lower than 60% (ties excluded): `Cc1nn(-c2ccc(Cl)cc2)c(=O)n1CCOc1ccccc1Cl`
condition not met

Determine whether this compound shows growth lower than 60% (ties excluded): `COc1ccc(-c2nnc(COc3ccc(NC(=O)Nc4ccc(Cl)c(C(F)(F)F)c4)cc3F)o2)cc1`
condition met

Determine whether this compound shows growth lower than 60% (ties excluded): `CCCOC(=O)C1(O)CCCC1`
condition not met

Determine whether this compound shows growth lower than 60% (ties excluded): `Nc1nc(-c2ccccc2)cs1`
condition not met

Determine whether this compound shows growth lower than 60% (ties excluded): `C=CCOc1cccc(/C=C/C(=O)c2sc(Nc3cccnc3)nc2C)c1`
condition not met

Determine whether this compound shows growth lower than 60% (ties excluded): Nc1c(C(=O)Nc2cccc(C(F)(F)F)c2)sc2nc3c(cc12)C(O)CCC3 (configuration not stated)
condition met

Determine whether this compound shows growth lower than 60% (ties excluded): `COc1ccc(-c2nc3sccn3c2-c2ccnc(NCCCNS(=O)(=O)c3ccc(C)cc3)n2)cc1`
condition met

Determine whether this compound shows growth lower than 60% (ties excluded): `CC(=O)Nc1ccc2c(c1)/C(=C\C=C/c1ccc([N+](C)(C)C)cc1)c1ccccc1-2`
condition met

Determine whether this compound shows growth lower than 60% (ties excluded): `CCN(C(=O)c1cc2ncccc2[nH]1)[C@H]1CCC[C@@H](NCc2cccc(F)c2)C1`
condition not met

----------
- System: NCI/ADR-RES ovarian
- assay_remarks: NCI-60 one-dose screen, 48 h (100 = growth as untreated, 0 = no growth, -100 = all killed)
- condition_parameters: 10 µM unless noted
- Experimental: Growth inhibition of the NCI/ADR-RES human […] tumor cell line is measured as a screen for anti-cancer activity. Cells are grown in 96 well plates and exposed to the test compound for 48 hours. Compounds are tested at a single concentration, which is 10^-5 M for most compounds. The reported endpoint is percent growth (GI% or GIPRCNT), where numbers from 0 - 100% represent growth inhibition, and numbers from -100% - 0 represent cell death. For example, a value of 40 represents 60% growth inhibition. […]
This is part of a sample that, as a whole, favours compounds with a hit. Of some 83,000 tested, about 20% had one in any assay.
Assign labels as follows, please: y for growth below 60%; n for growth equal to or exceeding 60%.

Determine whether this compound shows growth lower than 60% (ties excluded): `O=S(=O)(NCCNc1nccc(-c2c(-c3ccccc3)nc3sccn23)n1)c1ccc(O)cc1`
n

Determine whether this compound shows growth lower than 60% (ties excluded): CC1Cc2c(N(C)C)ncnc2N(C)c2ccc(O)cc21 (stereo not given)
n

Determine whether this compound shows growth lower than 60% (ties excluded): `O=S(=O)(NCCNc1cc(-c2cn(-c3ccccc3)nc2-c2ccccc2)ccn1)c1cccc2ccccc12`
y

Determine whether this compound shows growth lower than 60% (ties excluded): `O=C1c2ccccc2C(=O)c2c(N=Nc3sc(=O)[nH]c3S)cccc21`
n

----------
Record form. Attribute: growth. Fill in for each entry.
- System: NCI-H226 lung
- assay_remarks: NCI-60 one-dose screen, 48 h (100 = growth as untreated, 0 = no growth, -100 = all killed)
- condition_parameters: 10 µM unless noted
This is part of a sample that, as a whole, favours compounds with a hit. Of some 83,000 tested, about 20% had one in any assay.
Provide the reading as a plain figure in %.

In plain terms, `CCn1cc(C(=O)O)c(=O)c2cc(F)c(N3CCN(S(=O)(=O)c4ccc(Cl)cc4Cl)CC3)cc21` has a documented growth of 13.1

In plain terms, `CC(C)N(Cc1ccc(CN(C(=O)CCl)C(C)C)cc1)C(=O)CCl` has a documented growth of -2.93

In plain terms, `Clc1nc(-c2cccnc2)nc2sc3c(c12)CCCCCC3` has a documented growth of 98.6

In plain terms, `O=S(=O)(NCCCNc1nccc(-c2c(-c3ccc(O)cc3)nc3sccn23)n1)c1ccc(F)cc1` has a documented growth of 3.13

In plain terms, `COc1ccc(NC(=S)/N=c2\oc3c(OC)cccc3cc2-c2cc3ccccc3[nH]2)cc1` has a documented growth of 58.8

In plain terms, `Nc1c(C(=O)Nc2ccccc2)sc2nc3c(cc12)CCCCC3` has a documented growth of 27.3

In plain terms, `NC(N)=NC(N)=Nc1ccccc1-c1ccccc1` has a documented growth of 111

In plain terms, `O=C(Nc1ccc(Br)c(Cl)c1)c1cc(F)ccc1O` has a documented growth of -23.8

In plain terms, O=C(O)C(Cc1ccccc1)N1C(=O)/C(=C/C(Cl)=C/c2ccc([N+](=O)[O-])cc2)SC1=S (stereo not given) has a documented growth of 71.2

In plain terms, `COc1cc(-c2cc(/C=C3\CCCCC3=O)[nH]n2)cc(OC)c1OC` has a documented growth of 94.6

----------
- System: MDA-MB-231 breast
- assay_remarks: NCI-60 one-dose screen, 48 h
- condition_parameters: 10 µM unless noted
Compounds without any hit were thinned out: in the full panel of roughly 83,000, 20% have a hit. Active and inactive are the calls of the source. The calls were made as follows: active = growth percent below 10; inactive = the rest.
Pick one and only one: active, inactive

How did this test come out for `O=C1CCCCN1CCCCC#Cc1ccccc1C#Cc1ccc([N+](=O)[O-])cc1` ?
inactive

How did this test come out for CCN1C(=O)N(CC)C2Nn3c(s/c(=C\c4cccc(F)c4)c3=O)=NC21 (centres undefined) ?
inactive

How did this test come out for `COc1ccc([N+](=O)[O-])c(/C=C/C(=O)c2ccccn2)c1` ?
inactive

How did this test come out for `O=S(=O)(NCCCNc1cc(-c2cn(-c3ccccc3)nc2-c2cccc(O)c2)ccn1)c1ccc(Cl)cc1` ?
active

How did this test come out for `CCCCNc1nnc(-c2cc(-c3cc4ccccc4o3)nn2-c2ccccc2)o1` ?
inactive

How did this test come out for `CCn1cc(C(=O)O)c(=O)c2cc(F)c(N3CCN(S(=O)(=O)c4c(C)cc(C)cc4C)CC3)cc21` ?
inactive

How did this test come out for `CSc1nc(-c2cc3ccccc3o2)cc(-c2ccc(Cl)cc2)c1C#N` ?
inactive

How did this test come out for `CC/C=C\C/C=C\C[C@H](O)C/C=C1/C(=O)C=C[C@H]1C/C=C\CCC(=O)OC` ?
inactive

How did this test come out for `COc1ccc(C(=O)c2cc(OC)c(OC)c(OC)c2)cc1/C=C/C(=O)c1ccc(O)cc1` ?
inactive
